System: COLO 205 colon
test_method_notes: NCI tumour cell line growth inhibition, 48 h
Recorded TGI values for a group of compounds are listed next.
Numbers only here, please. The scale is µM.

Solved entries:
* c1ccc2c(c1)N=c1ccccc1=P21c2ccccc2Nc2ccccc21 | 0.366
* NC(=O)NC1=NCCC(=O)N1CCc1c[nH]c2ccccc12 | 27.9

From here, focus on the item given below.
Query: Request - read-out TGI | tested on COLO 205 colon | compound `Cc1cc(C)c2nc(Nc3nc(C)c(C)c(=O)[nH]3)nc(C)c2c1`
Result: 7.51

###

Test system: KM12 colon
test_method_notes: NCI tumour cell line growth inhibition, 48 h
endpoint_name: TGI

Answered examples (3):
- N#CC1=C(N)NC(=S)NC1c1ccc(-c2ccc(-c3nc4ccccc4s3)cc2)o1 (centres undefined): > 50 µM
- S=c1sc2ccccc2n1CN1CCN(Cc2ccccc2)CC1: > 100 µM
- CCOC(=O)C(NC(=O)Nc1ccccc1)(Nc1cccc(Cl)c1)C(F)(F)F (centres undefined): > 100 µM

Shifting focus to the molecule that follows.
Query: # input molecule: `Cn1c(=O)c2[nH]c(Nc3ccccc3)nc2n(C)c1=O` ; wanted: its TGI
Result: > 10 µM

###

Tested on: A498 renal
test_method_notes: NCI tumour cell line growth inhibition, 48 h; in the data active means GI50 below about 0.43 µM; inactive means the rest
Respond using exactly one of the listed classes: active, inactive

Worked examples follow.
* CC(C)=CCNc1ncnc2c1ncn2C1OC(COP(=O)(O)O)C(O)C1O (stereo not drawn) | inactive
* O=C(NCCc1ccccc1)C(c1csc2ccccc12)N(C(=O)CCl)c1ccc(-c2cnco2)cc1 (stereo not drawn) | inactive
* COc1cc(C2C3=C(COC3=O)N(CCO)c3cc4c(cc32)OCCO4)cc(OC)c1O (stereo not drawn) | inactive

Query: How was `C=CC[n+]1c(/C=C2\Sc3ccccc3N2C)sc(-c2ccccc2)c1-c1ccccc1` classified in this test?
Result: active

Query: // repeat for `O=c1cc(N2CCOCC2)oc2c(-c3ccccc3)cccc12` and report
Result: inactive

Query: For `Cc1c(Br)cccc1NC(=O)c1sc2nc3c(cc2c1N)CN(Cc1ccccc1)CC3` then?
Result: active

Query: Record: `CN1CCN(c2nc(NCCNc3ccnc4cc(Cl)ccc34)c3ccccc3n2)CC1`
Result: inactive

Query: Try this compound next: COC(=O)C1=C(O)C(C(=O)OC)[C@@]2(O)[C@@H](C(=O)OC)C(c3ccccc3C(F)(F)F)C[C@@H]1[C@@H]2C(=O)OC (stereo partly drawn)
Result: inactive

###

Tested on: RPMI-8226 leukemia
test_method_notes: NCI tumour cell line growth inhibition, 48 h; in the data active = GI50 below about 0.43 µM; inactive = the rest
Answer with one of the outcomes given here: yes (active), no (inactive)

- Nc1ccc(Cl)cc1.Nc1ccc(Cl)cc1.Nc1ccc(Cl)cc1.O=C([O-])C(=O)[O-].O=C([O-])C(=O)[O-].[H+].[Ru+5]: yes
- COC(=O)c1ccc2c(c1)CCN2C(=O)c1cc2c(cc1Br)OCO2: no

As a next step, examine the compound that follows.
Query: For `O=C1C=Cc2cc3ccccc3c3cccc1c23` , which call appears in the assay record?
Result: no

###

Test system: HCT-116 colon
test_method_notes: NCI tumour cell line growth inhibition, 48 h
Measured TGI, listed per entry for reference.

• COc1ccc(-c2cc(-c3ccco3)c(C#N)c(=O)n2C2OC(OC(=O)c3ccccc3)C(OC(=O)c3ccccc3)C2OC(=O)c2ccccc2)cc1 (centres undefined) = > 100 µM
• Clc1ccc2nc3c(c(-c4ccccc4)nn3-c3ccccc3)c(-c3ccccc3)c2c1 = > 100 µM
• CC(CCC(=O)O)(c1cc(Br)c(O)c(Br)c1)c1cc(Br)c(O)c(Br)c1 = > 100 µM

# context switch: different compound, same TGI
Query: Short answer please: TGI, HCT-116 colon, entry `CN(CCN(C)Cc1ccc(Cl)c(Cl)c1)CCN1CCCC1`
Result: > 57.8 µM
